ASSAYED TARGET: T1, AMA-1 on P. falciparum 3D7 strain parasites (Plasmodium falciparum)
T1 chain: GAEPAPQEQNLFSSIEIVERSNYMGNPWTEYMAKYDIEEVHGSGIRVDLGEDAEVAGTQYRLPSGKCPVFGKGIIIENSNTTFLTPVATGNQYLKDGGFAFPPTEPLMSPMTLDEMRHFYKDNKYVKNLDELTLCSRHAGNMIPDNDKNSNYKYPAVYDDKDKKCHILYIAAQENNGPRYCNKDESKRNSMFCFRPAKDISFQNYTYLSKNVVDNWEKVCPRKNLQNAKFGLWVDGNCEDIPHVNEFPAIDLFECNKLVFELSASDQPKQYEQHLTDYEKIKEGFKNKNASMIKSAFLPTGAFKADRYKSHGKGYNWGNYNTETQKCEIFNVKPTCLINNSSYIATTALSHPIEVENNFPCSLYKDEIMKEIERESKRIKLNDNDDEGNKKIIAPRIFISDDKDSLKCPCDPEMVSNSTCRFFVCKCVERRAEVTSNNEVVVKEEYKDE
RUN DESCRIPTION: cell-based or functional assay
ENDPOINT NAME: GIA at 1 mg/ml against the 3D7 target strain: Inhibition (%)

[[record]]
binder = "Monoclonal 4E11 (antibody, V domains shown) VH: EVQLQESGPGLVRPSQSLSITCTVSGFSLPLYGVHWVRQSPGKGLEWLGVIWSGGSTDYNAAFVSRLSISKDNSKSQVFFEMNSLQADDTATYYCARNNGYYVDAMDYWGQGTSVTVSS VL: DVVMTQTPLSLPVSLGDQASISCRSSQSLVHSNGNTYLHWYLQKPGQSPKLLIFKVSNRFSGVPDRFSGSGSGTDFTLQISRVEAEDLGFYFCSQSTHVPTFGGGTKLEIKR"
recorded_number = 62

[[record]]
binder = "Monoclonal 1E10 (antibody, V domains shown) VH: EVQLQESGAELAKPGASVKLSCKASGYTFTNYLMHWIKQRPGQGLEWIGYINHGSGYTNYNQKFIDRATLTADKSSSTAYMQLRSLTYEDSAVYYCVHGYFDVWGTGTTVTVSS VL: QIVLTQSPTIMSASPGEKVTMTCSASSSVTYMHWYQQKPGTSPKRWIYDTSKLASGVPARFSGSGSGTSYSLTISSMEAEDAATYYCHQRSSYPTFGGGTKLEIKR"
recorded_number = 20

[[record]]
binder = "Monoclonal 4E8 (antibody, V domains shown) VH: EVQLQESGPGLVQPSQSLSITCTVSDFSLIMYGVHWVRQSPGKGLEWLGVIWSGGSTDYNAAFISRLSISKDNSKSQVFFKMNSLQADDTAIYYCARNNGYYVDAMDYWGQGTSVTVSS VL: DVVMTQTPLSLPVSLGDQASISCRSSQSLVHNNGNTYLHWYLQKPGQSPKLLIYKVSNRFFGVPDRFSGSGSGTDFTLKISRVEAEDLGVYFCSQSTHVPTFGGGTKLEIKR"
recorded_number = 67

[[record]]
binder = "Monoclonal 1B10 (antibody, V domains shown) VH: EVQLQESGPGLVQPSQSLSITCTVSGFSLNMYGVHWVRQSPGKGLEWLGVIWSGGTTDYNAAFISRLSINRDNSKSQVFFKMNSLQTDDTAIYYCVRNNGYYVDAMDYWGQGTSVAVSS VL: DVVMTQTPLSLPVSLGDQASISCRSSQSLVHSNGNTYLHWYLQRPGQSPKLLIYKVSNRFSGVPDRFSGSGSGTDFTLKISRVEAEDLGVYFCSQSTLGPTFGGGTKLEMQR"
recorded_number = 65


Data provenance is patent US10357554B2.
